IC50 for ASK1 (Homo sapiens (Human), UniProt Q99683) - collated from the literature.

{"COMPOUND": "Cc1cnc(C(=O)Nc2cccc(-c3nnnn3[C@H](C)CO)n2)cc1-c1cn(C(C)C)cn1", "IC50": "0.001 to 0.01 µM"}
{"COMPOUND": "C[C@@H]1Cn2cnnc2-c2cccc(NC(=O)c3cc(-n4cnc(C5CC5)c4)ccn3)c2O1", "IC50": "0.0059 µM"}
{"COMPOUND": "CC(C)n1cnnc1-c1cccc(NC(=O)c2cc3sc(C4CC4)nc3cc2F)n1", "IC50": "0.01 to 0.1 µM"}
{"COMPOUND": "C=CCN1CCc2ccc(C(=O)Nc3cccc(-c4nncn4C(C)C)n3)cc2C1", "IC50": "0.1 to 1 µM"}
{"COMPOUND": "O=C(Nc1cccc2c1OC[C@H](CO)n1nnnc1-2)c1cc(-n2cnc(C3CC3)c2)ccn1", "IC50": "0.0062 µM"}

Note to self: IC50 of Cc1cc(F)c(C(=O)Nc2cccc3c2OCCn2cnc(Br)c2-3)cc1-n1cnc(C2CC2)c1 with ASK1 (Homo sapiens (Human), UniProt Q99683) was 0.0398 µM

Note to self: IC50 of CC(C)n1nnnc1-c1cccc(NC(=O)c2cc3sc(N(C)C4CCCCC4)nc3cc2F)n1 with ASK1 (Homo sapiens (Human), UniProt Q99683) was > 1 µM

Note to self: IC50 of CC(C)n1cnnc1-c1cccc(N2COc3ccc(-c4cnn(C5CCOC5)c4)cc3C2=O)n1 (centres unmarked) with ASK1 (Homo sapiens (Human), UniProt Q99683) was 0.0388 µM
